- TARGET_SYSTEM: FAD-linked sulfhydryl oxidase ALR (Homo sapiens)
- TEST_DESCRIPTION: ALR-catalysed DTT oxidation blockers – biochemical, H2O2 detection, HRP-luminol luminescence, single point, primary screen (AID 485317)
- MEASUREMENT_SETUP: purified ALR, concentration not given here
Out of some 290,000 compounds screened, about 11,000 (3.8%) were called active.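 How the source made its calls: active means mean replicate inhibition above about 79%, with every replicate also reaching it (limit read from the data); inconclusive means only one of the two criteria met; inactive means mean below limit and not every replicate reaching it.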 What follows is part of a selection rich in actives, with near analogues and random picks from the rest.
Bench note: report the call from active, inactive

[ask] So what was the verdict on O=C(NNS(=O)(=O)c1c(F)cc(F)c(Cl)c1F)C12CC3CC(CC(C3)C1)C2 in this test?
[reply] inactive

[ask] So what was the verdict on O=C(NCc1ccccc1Cl)C(=O)NCC1CCCN1S(=O)(=O)c1cccs1 (configuration not stated) in this test?
[reply] inactive

[ask] So what was the verdict on Cc1nc2ccccc2c(=O)n1-c1ccc(NS(=O)(=O)c2ccc(F)cc2F)cc1 in this test?
[reply] inactive

[ask] So what was the verdict on CCOC(=O)c1sc(NC(=O)C2CSC3(C)CCC(=O)N23)nc1C (configuration not stated) in this test?
[reply] inactive

[ask] So what was the verdict on Cc1nn(CC(=O)Nc2nc3ccccc3s2)c(C)c1[N+](=O)[O-] in this test?
[reply] inactive

[ask] So what was the verdict on CCOC(=O)c1c(C)oc2cc(Sc3ccccc3)c(O)c(O)c12 in this test?
[reply] inactive

[ask] So what was the verdict on CC(=O)Nc1ccc(NC(=O)CCN2C(=O)C3CC=CCC3C2=O)cc1 (configuration not stated) in this test?
[reply] inactive

[ask] So what was the verdict on COc1cc(N/C=C2\CC(=O)NC(C)=C2C#N)cc(OC)c1OC in this test?
[reply] active

[ask] So what was the verdict on Cc1ccc(Cc2nnc(SCC(=O)Nc3ccc(C)cc3C)[nH]c2=O)cc1 in this test?
[reply] inactive

[ask] So what was the verdict on O=C(OCCN1C(=O)c2ccccc2C1=O)[C@@H]1CC(O)CN1S(=O)(=O)c1ccccc1[N+](=O)[O-] (some centres not stated) in this test?
[reply] inactive

[ask] So what was the verdict on CCC(C)Cn1c(O)cc2nn(-c3nc4ccccc4s3)c(=O)c-2c1C (configuration not stated) in this test?
[reply] active

[ask] So what was the verdict on COc1ccc(-c2sc3ccc(OC)cc3c2C#Cc2ccccn2)cc1 in this test?
[reply] inactive

[ask] So what was the verdict on COc1cc(/C=N/n2c(C)n[nH]c2=S)ccc1OCc1ccccc1 in this test?
[reply] active

[ask] So what was the verdict on O=C(COC(=O)C1CC2CCCC(C1)C2=O)NC(=O)c1ccccc1 (configuration not stated) in this test?
[reply] inactive

[ask] So what was the verdict on COc1ccc(N2CCN(C(=O)c3cccs3)CC2)cc1 in this test?
[reply] active

[ask] So what was the verdict on CCCCNC(=O)CSc1nccn1Cc1ccccc1 in this test?
[reply] inactive

[ask] So what was the verdict on O=C(c1cccs1)N1CCN(C(=O)N2CCOCC2)CC1 in this test?
[reply] inactive

[ask] So what was the verdict on Cc1ccsc1C(=O)NNC(=O)COc1ccc(Br)cc1 in this test?
[reply] inactive

[ask] So what was the verdict on CCOc1ccc(/C=N/Nc2nncc(-c3ccccc3)n2)cc1OC in this test?
[reply] inactive

[ask] So what was the verdict on CCOC(=O)N1CCN(CC(=O)Nc2cc(C)nn2-c2nc3ccccc3s2)CC1 in this test?
[reply] inactive

[ask] So what was the verdict on CC(C)CN(C(=O)COC(=O)c1ccc(Cl)c(N)c1)c1c(N)n(Cc2ccccc2)c(=O)[nH]c1=O in this test?
[reply] inactive

[ask] So what was the verdict on Cc1ccsc1C(=O)NC1CCCCC1C (configuration not stated) in this test?
[reply] inactive
